B1: library; numbered along this chain (parent)
chain: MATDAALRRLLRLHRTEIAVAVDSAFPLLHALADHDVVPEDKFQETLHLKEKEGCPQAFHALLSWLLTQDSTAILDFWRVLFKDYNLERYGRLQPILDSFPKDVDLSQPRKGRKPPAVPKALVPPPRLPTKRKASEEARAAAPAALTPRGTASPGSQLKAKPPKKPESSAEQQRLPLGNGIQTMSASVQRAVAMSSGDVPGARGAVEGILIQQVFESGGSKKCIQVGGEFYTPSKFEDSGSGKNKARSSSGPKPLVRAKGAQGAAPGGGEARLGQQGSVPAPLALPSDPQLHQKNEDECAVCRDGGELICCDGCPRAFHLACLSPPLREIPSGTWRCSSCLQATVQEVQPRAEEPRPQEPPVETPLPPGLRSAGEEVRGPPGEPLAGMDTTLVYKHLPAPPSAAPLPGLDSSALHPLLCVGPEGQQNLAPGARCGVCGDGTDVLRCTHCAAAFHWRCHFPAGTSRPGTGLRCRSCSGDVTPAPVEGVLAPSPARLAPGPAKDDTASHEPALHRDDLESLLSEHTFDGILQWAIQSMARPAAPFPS

Variants of: B1
protocol-notes: AIRE transcriptional activation functional score (insulin promoter-GFP; nonsense median 0, synonymous median 1) (normalised score); higher = higher AIRE activity (more reporter activation)
test-settings: with insulin promoter-GFP reporter in HEK293
Rule: AIRE transcriptional activation functional score under 0.8 gives Not satisfied, otherwise Satisfied.

Example cases with answers are listed next.
variant_label=A429D group_label=Satisfied
variant_label=A496R group_label=Satisfied
variant_label=G204H group_label=Satisfied
variant_label=Q189P group_label="Not satisfied"
variant_label=D23C group_label="Not satisfied"
variant_label=G382D group_label=Satisfied
variant_label=P163G group_label="Not satisfied"
variant_label=D410P group_label=Satisfied
variant_label=R336F group_label=Satisfied
variant_label=H448P group_label="Not satisfied"

**Q:** I'd appreciate it if you could say whether `A142I` has AIRE transcriptional activation functional score at least equal to 0.8.
**A:** Satisfied

**Q:** I'd appreciate it if you could say whether `S195L` has AIRE transcriptional activation functional score at least equal to 0.8.
**A:** Not satisfied

**Q:** I'd appreciate it if you could say whether `I209N` has AIRE transcriptional activation functional score at least equal to 0.8.
**A:** Not satisfied

**Q:** I'd appreciate it if you could say whether `K111H` has AIRE transcriptional activation functional score at least equal to 0.8.
**A:** Not satisfied

**Q:** I'd appreciate it if you could say whether `K165L` has AIRE transcriptional activation functional score at least equal to 0.8.
**A:** Not satisfied

**Q:** I'd appreciate it if you could say whether `K222D` has AIRE transcriptional activation functional score at least equal to 0.8.
**A:** Not satisfied
